Source: PubChem BioAssay AID686979

test: qHTS for Inhibitors of human tyrosyl-DNA phosphodiesterase 1 (TDP1): qHTS in cells in presence of CPT; settings: chicken DT40 Tdp1-/-;hTDP1 cells + 20 nM CPT, ATP luminescence, 48 h; series mostly up to 46.2 µM; further: nearly all actives have a fitted effect of over 55% in size; further: potency means the concentration at half of the fitted maximal effect
Out of some 420,000 compounds screened, about 50,000 (12%) were called active. Roughly 26% stayed inconclusive and do not appear here. This is one part of a sample in which actives are shown more often than they occur.
parameter.measured: Potency

{"compound.structure.string": "O=c1[nH]c(O)c(C=Nc2cc(F)cc(F)c2)c(=O)[nH]1", "parameter.measured": "Potency", "result": "inactive"}
{"compound.structure.string": "C[C@@]1([C@@H](NP(=O)(c2ccccc2)c2ccccc2)c2ccccc2)C[C@H]1CCO", "parameter.measured": "Potency", "result": "9.2 µM (active)"}
{"compound.structure.string": "Cc1cc(-c2ccc(N)c(C)c2)ccc1N", "parameter.measured": "Potency", "result": "inactive"}
{"compound.structure.string": "O=C1NC(=O)N(Cc2ccco2)C(=O)/C1=C\\c1ccc(-c2ccc(F)cc2)o1", "parameter.measured": "Potency", "result": "20.6 µM (active)"}
{"compound.structure.string": "O=C1NC(=O)N(Cc2ccco2)C(=O)/C1=C\\c1cccn1CCOc1ccccc1", "parameter.measured": "Potency", "result": "inactive"}
{"compound.structure.string": "O=C(c1cc(-c2ccncc2)nc2ccccc12)N1CCC2(CC1)OCCO2", "parameter.measured": "Potency", "result": "inactive"}
{"compound.structure.string": "NCCc1ccc(S(=O)(=O)F)cc1", "parameter.measured": "Potency", "result": "inactive"}

====

assay: qHTS for Inhibitors of human tyrosyl-DNA phosphodiesterase 1 (TDP1): qHTS in cells in presence of CPT; conditions: chicken DT40 Tdp1-/-;hTDP1 cells + 20 nM CPT, ATP luminescence, 48 h; series mostly up to 46.2 µM; further: nearly all actives have a fitted effect of over 55% in size
About 50,000 (12%) of roughly 420,000 compounds were called active. Inconclusive results (about 26%) are left out. Calls follow the shape of the dose curve; as a rule, active = well fitted inhibition curve with a large enough effect; inconclusive = small, poorly fitted or top-dose-only effect; inactive = flat fitted curve, though single readings scatter. Only a selection was taken, and actives are over-represented in it overall.
Outcomes: yes = active, no = inactive

{"compound": "CN(C)C(=O)Oc1ccc(NC(=O)N2CCOCC2)cc1", "assigned.label": "no"}
{"compound": "Cc1ncsc1CCCl", "assigned.label": "no"}
{"compound": "Cc1ccc(C(C)C)c(OCC(=O)N2CCN(CC(=O)N3CCOCC3)CC2)c1", "assigned.label": "no"}
{"compound": "O=C1C2(Cl)C3(Cl)C4(Cl)C(Cl)(Cl)C5(Cl)C3(Cl)C1(Cl)C5(Cl)C24Cl (stereo not drawn)", "assigned.label": "yes"}
{"compound": "c1ccc(N2Cc3ccccc3-n3nncc3C2)nc1", "assigned.label": "no"}
{"compound": "COC(=O)C1=C(c2ccc(F)cc2OCc2ccccc2)C[C@@H]2CC[C@H]1N2C(=O)NCc1ccc(OC)c(OC)c1", "assigned.label": "yes"}
{"compound": "O=C1NC(=O)C(Cc2ccccc2)C(=O)N1", "assigned.label": "no"}
{"compound": "O=C1NC(=O)C(CCc2ccccn2)(Cc2cccc(Cl)c2Cl)C(=O)N1c1ccc(Br)cc1 (stereo not drawn)", "assigned.label": "no"}

====

experiment: qHTS for Inhibitors of human tyrosyl-DNA phosphodiesterase 1 (TDP1): qHTS in cells in presence of CPT; conditions: chicken DT40 Tdp1-/-;hTDP1 cells + 20 nM CPT, ATP luminescence, 48 h; series mostly up to 46.2 µM; further: nearly all actives have a fitted effect of over 55% in size
Out of some 420,000 compounds screened, about 50,000 (12%) were called active. About 26% were inconclusive and are not listed. The call rests on the fitted dose curve; in most records, active means well fitted inhibition curve with a large enough effect; inconclusive means small, poorly fitted or top-dose-only effect; inactive means flat fitted curve, though single readings scatter. The sample as a whole holds a higher share of actives than the screen did.
Outcomes: yes = active, no = inactive

{"molecule": "COCCCNC(=O)CC1C[C@H](C(=O)N2CCCCC2)[C@@]2(CCc3ccccc3)c3[nH]c4ccccc4c3CCN2C1=O (stereo partly drawn)", "assigned.label": "yes"}
{"molecule": "Cc1ccc2c(c1)C1CN(C)CCC1N2C(=O)Cn1nnc(-c2ccccc2F)n1 (stereo not drawn)", "assigned.label": "no"}
{"molecule": "COc1ccccc1NC(=O)N1C[C@@H]2C[C@@H](C1)c1cccc(=O)n1C2", "assigned.label": "no"}
